Target: EGFR L858R/C797S (Homo sapiens, UniProt P00533, C797S/L858R)
Sequence (P00533 25-1210 C797S/L858R): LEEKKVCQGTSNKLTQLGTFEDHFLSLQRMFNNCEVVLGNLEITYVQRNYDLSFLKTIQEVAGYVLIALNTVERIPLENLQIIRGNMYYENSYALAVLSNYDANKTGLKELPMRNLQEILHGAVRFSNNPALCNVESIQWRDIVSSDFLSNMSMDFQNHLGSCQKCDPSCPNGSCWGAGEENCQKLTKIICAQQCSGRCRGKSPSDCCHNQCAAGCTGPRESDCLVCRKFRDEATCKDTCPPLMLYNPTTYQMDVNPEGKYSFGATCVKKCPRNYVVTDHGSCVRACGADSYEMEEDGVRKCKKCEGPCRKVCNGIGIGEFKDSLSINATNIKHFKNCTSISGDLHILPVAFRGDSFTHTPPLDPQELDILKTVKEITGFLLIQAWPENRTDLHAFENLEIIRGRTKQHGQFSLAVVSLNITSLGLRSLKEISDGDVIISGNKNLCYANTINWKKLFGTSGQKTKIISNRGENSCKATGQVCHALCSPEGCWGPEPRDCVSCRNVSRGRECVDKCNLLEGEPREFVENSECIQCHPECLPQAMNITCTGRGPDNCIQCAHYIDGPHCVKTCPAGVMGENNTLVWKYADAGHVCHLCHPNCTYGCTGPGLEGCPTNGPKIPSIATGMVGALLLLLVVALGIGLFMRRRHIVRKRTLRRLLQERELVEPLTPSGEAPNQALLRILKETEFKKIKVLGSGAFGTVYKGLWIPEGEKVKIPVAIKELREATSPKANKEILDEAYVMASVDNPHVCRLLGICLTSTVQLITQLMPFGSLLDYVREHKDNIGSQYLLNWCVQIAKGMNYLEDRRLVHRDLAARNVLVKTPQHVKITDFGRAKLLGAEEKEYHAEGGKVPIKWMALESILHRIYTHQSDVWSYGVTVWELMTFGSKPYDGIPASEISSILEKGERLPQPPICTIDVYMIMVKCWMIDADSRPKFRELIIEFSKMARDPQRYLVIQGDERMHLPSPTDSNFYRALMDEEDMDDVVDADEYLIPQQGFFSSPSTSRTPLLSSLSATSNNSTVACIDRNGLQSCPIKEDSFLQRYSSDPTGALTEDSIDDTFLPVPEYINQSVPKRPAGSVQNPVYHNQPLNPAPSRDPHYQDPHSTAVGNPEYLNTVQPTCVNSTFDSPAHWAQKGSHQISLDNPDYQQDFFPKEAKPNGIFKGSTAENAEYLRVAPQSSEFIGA
Assay: Biochemical EGFR kinase assay (Lance Ultra TR-FRET), double mutant L858R/C797S
Conditions: Km ATP; read-out: IC50 L858R/C797S (nM) Km ATP
Assign labels as follows, please: YES for IC50 below 100 nM; NO for IC50 equal to or exceeding 100 nM.

Examples with answers:
compound: C[C@]1(O)CC[C@@H](Nc2cc(Nc3ccnc(-c4cnn(S(=O)(=O)C5CC5)c4)n3)ncc2-c2ccc(C(F)(F)F)nn2)CC1
label: YES
--
compound: C[C@]1(O)CC[C@@H](Nc2cc(Nc3ccnc(-c4cnn(S(=O)(=O)C5CC5)c4)n3)ncc2-c2ccc(N3CCC(F)(F)CC3)cn2)CC1
label: YES
--
compound: C[C@]1(O)CC[C@@H](Nc2cc(Nc3ccnc(-c4cnn(S(=O)(=O)C5CC5)c4)n3)ncc2-c2cnc(OC(F)F)cn2)CC1
label: YES
--
compound: O=S(=O)(C1CC1)n1cc(-c2nccc(Nc3cc(NC4CCC(CO)CC4)c(-c4ccc(N5CCOCC5)cn4)cn3)n2)cn1 (centres unmarked)
label: YES

Now for a further compound.
Q: Identify whether the compound "COc1c(F)ccnc1-c1cnc(Nc2ccnc(-c3cnn(CC(F)F)c3)n2)cc1N[C@H]1CC[C@@](C)(O)CC1" records IC50 below 100 nM.
A: NO

###

Target: EGFR L858R/T790M/C797S (Homo sapiens, UniProt P00533, C797S/L858R/T790M)
Sequence (P00533 25-1210 T790M/C797S/L858R): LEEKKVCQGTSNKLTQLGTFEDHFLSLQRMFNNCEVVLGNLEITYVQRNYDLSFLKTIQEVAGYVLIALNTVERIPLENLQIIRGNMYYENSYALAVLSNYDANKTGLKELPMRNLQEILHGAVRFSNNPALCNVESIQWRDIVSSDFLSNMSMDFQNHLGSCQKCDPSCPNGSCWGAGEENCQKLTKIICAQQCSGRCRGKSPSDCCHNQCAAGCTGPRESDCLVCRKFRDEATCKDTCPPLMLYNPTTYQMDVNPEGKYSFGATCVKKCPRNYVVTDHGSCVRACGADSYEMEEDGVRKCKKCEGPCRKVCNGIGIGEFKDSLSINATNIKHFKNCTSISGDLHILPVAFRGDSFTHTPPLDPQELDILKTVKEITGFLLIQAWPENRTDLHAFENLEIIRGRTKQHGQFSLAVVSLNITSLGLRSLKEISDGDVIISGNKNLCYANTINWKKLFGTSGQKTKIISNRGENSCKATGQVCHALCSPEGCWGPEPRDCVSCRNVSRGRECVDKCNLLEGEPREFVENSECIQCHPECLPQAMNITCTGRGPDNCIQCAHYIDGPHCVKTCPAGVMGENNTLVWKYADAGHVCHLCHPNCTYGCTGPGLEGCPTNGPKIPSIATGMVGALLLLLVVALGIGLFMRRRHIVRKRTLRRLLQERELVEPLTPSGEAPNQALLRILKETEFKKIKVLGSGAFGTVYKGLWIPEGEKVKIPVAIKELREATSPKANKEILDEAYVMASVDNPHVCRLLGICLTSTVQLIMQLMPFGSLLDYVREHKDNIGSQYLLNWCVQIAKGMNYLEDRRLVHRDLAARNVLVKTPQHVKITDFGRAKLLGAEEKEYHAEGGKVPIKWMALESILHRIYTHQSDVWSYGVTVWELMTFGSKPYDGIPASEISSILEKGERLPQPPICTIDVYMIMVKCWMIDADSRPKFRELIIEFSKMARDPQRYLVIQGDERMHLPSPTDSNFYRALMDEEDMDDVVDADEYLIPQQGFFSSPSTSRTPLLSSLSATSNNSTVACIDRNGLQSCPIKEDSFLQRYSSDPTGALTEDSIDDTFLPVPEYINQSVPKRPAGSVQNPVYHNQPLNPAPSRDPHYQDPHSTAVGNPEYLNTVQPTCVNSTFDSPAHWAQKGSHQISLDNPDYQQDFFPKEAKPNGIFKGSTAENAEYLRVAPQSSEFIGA
Experiment: Biochemical EGFR kinase assay (Lance Ultra TR-FRET), triple mutant L858R/T790M/C797S
Conditions: ATP at Km; read-out: IC50 L858R/T790M/C797S, Km ATP
# Lookup of reported log10 IC50 keyed by entry
Log scale reminder: IC50 in nM, then log10 taken.

# example entries with known answers
compound: CC(C)Nc1cc(Nc2ccnc(-c3cnn(S(=O)(=O)C4CC4)c3)n2)ncc1-c1ccc(C(O)C(F)(F)F)cn1 (stereo not drawn)
log10 IC50: 0.36
//
compound: C[C@]1(O)CC[C@@H](Nc2cc(Nc3nc(-c4cnn(S(=O)(=O)C5CC5)c4)ncc3F)ncc2-c2ccc(CC(F)(F)F)cn2)CC1
log10 IC50: 0.51
//
compound: CC(C)(O)c1ccc(-c2cnc(Nc3ccnc(-c4cnn(S(=O)(=O)C5CC5)c4)n3)cc2NC2CCC(F)(F)CC2)nc1
log10 IC50: 0.04
//
compound: CN(C)C[C@H]1CC[C@@H](Nc2cc(Nc3ccnc(-c4cnn(S(=O)(=O)C5CC5)c4)n3)ncc2-c2ccc(C(C)(C)O)cn2)CC1
log10 IC50: -1.00
//
compound: CC(C)(O)c1ccc(-c2cnc(Nc3ccnc(-c4cnn(S(=O)(=O)C5CC5)c4)n3)cc2NC2CCCN(CCF)C2)nc1 (stereo not drawn)
log10 IC50: 0.28

Please find the next compound below.
Lab note: measured log10 IC50 of "CN(C)S(=O)(=O)n1cc(-c2nccc(Nc3cc(N[C@H]4CC[C@@](C)(O)CC4)c(-c4ccc(CC(F)(F)F)cn4)cn3)n2)cn1" was 0.57

###

Target: EGFR del19/C797S (Homo sapiens, UniProt P00533, C797S/DEL746-750)
Sequence (P00533 with tags, fused parts or gaps DEL746-750/C797S): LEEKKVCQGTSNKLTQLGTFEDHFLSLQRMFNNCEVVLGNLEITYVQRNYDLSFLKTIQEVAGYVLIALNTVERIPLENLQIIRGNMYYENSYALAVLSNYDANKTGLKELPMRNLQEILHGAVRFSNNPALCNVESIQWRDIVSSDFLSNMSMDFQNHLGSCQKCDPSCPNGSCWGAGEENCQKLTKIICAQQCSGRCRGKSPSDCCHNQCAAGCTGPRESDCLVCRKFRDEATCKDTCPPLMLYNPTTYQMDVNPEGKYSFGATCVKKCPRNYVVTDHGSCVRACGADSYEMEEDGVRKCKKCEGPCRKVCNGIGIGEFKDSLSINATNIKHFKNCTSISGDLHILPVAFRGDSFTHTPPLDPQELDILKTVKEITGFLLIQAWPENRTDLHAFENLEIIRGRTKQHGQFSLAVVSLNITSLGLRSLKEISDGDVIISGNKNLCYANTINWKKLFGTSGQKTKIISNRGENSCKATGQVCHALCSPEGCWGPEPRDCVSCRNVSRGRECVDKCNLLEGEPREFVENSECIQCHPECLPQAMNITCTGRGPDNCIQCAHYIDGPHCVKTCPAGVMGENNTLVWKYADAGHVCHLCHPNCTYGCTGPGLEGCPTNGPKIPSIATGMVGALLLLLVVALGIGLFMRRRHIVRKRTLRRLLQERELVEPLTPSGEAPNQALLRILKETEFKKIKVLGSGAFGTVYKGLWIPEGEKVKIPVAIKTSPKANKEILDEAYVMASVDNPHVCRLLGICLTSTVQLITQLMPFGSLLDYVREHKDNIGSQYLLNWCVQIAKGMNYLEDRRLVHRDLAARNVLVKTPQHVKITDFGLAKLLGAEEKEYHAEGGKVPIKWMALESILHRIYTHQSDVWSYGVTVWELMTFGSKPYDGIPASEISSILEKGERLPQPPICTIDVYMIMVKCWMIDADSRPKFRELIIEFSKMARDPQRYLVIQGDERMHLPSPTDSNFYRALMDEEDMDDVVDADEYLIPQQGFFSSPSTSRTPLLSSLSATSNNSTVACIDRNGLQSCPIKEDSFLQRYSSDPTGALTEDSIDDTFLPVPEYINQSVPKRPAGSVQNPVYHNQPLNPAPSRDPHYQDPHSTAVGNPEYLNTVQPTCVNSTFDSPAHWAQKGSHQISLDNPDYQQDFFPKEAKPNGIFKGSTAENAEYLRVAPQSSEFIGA
Test: Biochemical EGFR kinase assay (Lance Ultra TR-FRET), double mutant del19/C797S
Conditions: IC50 del19/C797S (nM) 100 μM ATP, 100 μM ATP
# Lookup of reported IC50 keyed by entry
Output should be the measured figure followed by the unit it is expressed in.

# example entries with known answers
molecule smiles: CC(C)(O)[C@H]1CC[C@@H](Nc2cc(Nc3ccnc(-c4cnn(S(=O)(=O)C5CC5)c4)n3)ncc2-c2ccc(CO)cn2)CC1
value observed: 2.2 nM
//
molecule smiles: O=S(=O)(C1CC1)n1cc(-c2nccc(Nc3cc(N[C@H]4CC[C@@H](CO)CC4)c(-c4cc(N5CCC(F)(F)CC5)ccn4)cn3)n2)cn1
value observed: 10.8 nM
//
molecule smiles: CC(C)(O)[C@H]1CC[C@@H](Nc2cc(Nc3ccnc(-c4cnn(S(=O)(=O)C5CC5)c4)n3)ncc2-c2ccc(N3CCC(F)(F)CC3)nn2)CC1
value observed: 44.2 nM
//
molecule smiles: CC(C)N1CCN(Cc2ccc(-c3cnc(Nc4ccnc(-c5cnn(S(=O)(=O)C6CC6)c5)n4)cc3N[C@H]3CC[C@@](C)(O)CC3)nc2)CC1
value observed: 0.4 nM
//
molecule smiles: COc1cnc(-c2cnc(Nc3ccnc(-c4cnn(S(=O)(=O)C5CC5)c4)n3)cc2N[C@H]2CC[C@@](C)(O)CC2)cn1
value observed: 8.8 nM
//
molecule smiles: CN(C)c1ccc(-c2cnc(Nc3ccnc(-c4cnn(S(=O)(=O)C5CC5)c4)n3)cc2N[C@H]2CC[C@@](C)(O)CC2)nc1
value observed: 3.2 nM
//
molecule smiles: CN1CCN(Cc2ccnc(-c3cnc(Nc4ccnc(-c5cnn(S(=O)(=O)C6CC6)c5)n4)cc3N[C@H]3CC[C@@](C)(O)CC3)c2)CC1
value observed: 1.1 nM
//
molecule smiles: C[C@]1(O)CC[C@@H](Nc2cc(Nc3ccnc(-c4cnn(S(=O)(=O)C5CC5)c4)n3)ncc2-c2ccc(C(F)(F)F)nn2)CC1
value observed: 10.6 nM

Please find the next compound below.
EGFR del19/C797S (Homo sapiens, UniProt P00533, C797S/DEL746-750) data for "CN(C)Cc1cccc(-c2cnc(Nc3ccnc(-c4cnn(S(=O)(=O)C5CC5)c4)n3)cc2N[C@H]2CC[C@@](C)(O)CC2)n1" ; its IC50: 0.4 nM

Data provenance: patent US12258328B2
